molecular target: EGFR (Homo sapiens (Human)); assay: Inhibition of EGFR autophosphorylation in A431 human epithelial cells stimulated with EGF; settings: EGF 60 ng/mL, phospho EGFR, read-out: A431 p-EGFR IC50
Sequence (P00533 25-1210): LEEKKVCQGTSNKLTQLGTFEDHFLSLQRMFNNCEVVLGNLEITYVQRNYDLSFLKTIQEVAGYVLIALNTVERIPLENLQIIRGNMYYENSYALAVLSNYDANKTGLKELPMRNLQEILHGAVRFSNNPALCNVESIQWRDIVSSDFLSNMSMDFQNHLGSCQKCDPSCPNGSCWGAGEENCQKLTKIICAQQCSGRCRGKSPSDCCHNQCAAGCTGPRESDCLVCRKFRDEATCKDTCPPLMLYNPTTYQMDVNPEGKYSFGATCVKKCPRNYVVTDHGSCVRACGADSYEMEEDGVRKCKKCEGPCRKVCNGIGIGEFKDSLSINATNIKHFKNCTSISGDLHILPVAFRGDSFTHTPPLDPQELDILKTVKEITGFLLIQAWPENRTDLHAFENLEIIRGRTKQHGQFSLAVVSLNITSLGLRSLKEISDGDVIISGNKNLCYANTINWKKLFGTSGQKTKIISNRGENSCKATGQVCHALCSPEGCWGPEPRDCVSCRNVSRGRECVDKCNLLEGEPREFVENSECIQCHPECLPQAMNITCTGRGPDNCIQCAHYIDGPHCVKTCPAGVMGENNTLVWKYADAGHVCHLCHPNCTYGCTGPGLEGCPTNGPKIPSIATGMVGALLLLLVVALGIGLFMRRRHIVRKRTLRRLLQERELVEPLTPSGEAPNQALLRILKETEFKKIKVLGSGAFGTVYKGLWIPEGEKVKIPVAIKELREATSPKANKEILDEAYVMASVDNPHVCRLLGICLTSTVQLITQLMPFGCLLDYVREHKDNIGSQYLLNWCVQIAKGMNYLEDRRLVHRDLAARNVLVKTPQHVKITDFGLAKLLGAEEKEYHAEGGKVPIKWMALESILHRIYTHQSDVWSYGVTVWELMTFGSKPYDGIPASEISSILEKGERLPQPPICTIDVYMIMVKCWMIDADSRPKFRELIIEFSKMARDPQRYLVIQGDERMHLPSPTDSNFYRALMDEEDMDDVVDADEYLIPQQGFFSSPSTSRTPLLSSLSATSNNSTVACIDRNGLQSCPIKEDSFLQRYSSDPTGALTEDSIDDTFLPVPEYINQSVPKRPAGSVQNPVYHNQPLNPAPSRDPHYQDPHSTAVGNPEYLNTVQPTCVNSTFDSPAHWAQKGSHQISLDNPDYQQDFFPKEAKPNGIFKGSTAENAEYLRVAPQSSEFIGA
pIC50: −log10 of the molar value.
The following molecules are shown together with reported pIC50 values.
assay endpoint: pIC50

>  <chemical string>
CC#CC(=O)N1CC2(CC(n3nc(-c4ccc(Oc5ccccc5)cc4)c(C(N)=O)c3N)C2)C1

>  <prefix operator>
=

>  <number>
6.37

$$$$
>  <chemical string>
CC#CC(=O)N1CC[C@]2(C1)C[C@H](n1nc(-c3ccc(OCCC)c(F)c3)c(C(N)=O)c1N)C2

>  <prefix operator>
=

>  <number>
6.40

$$$$
>  <chemical string>
CC#CC(=O)N1CC2(CC(n3nc(-c4ccc(OC(C)C)cc4)c(C(N)=O)c3N)C2)C1

>  <prefix operator>
<

>  <number>
5.00

$$$$
>  <chemical string>
C=CC(=O)N1CC2(CC(n3cc(C(N)=O)c(-c4ccc(Oc5ccccc5)cc4)n3)C2)C1

>  <prefix operator>
=

>  <number>
5.33

$$$$
>  <chemical string>
CC#CC(=O)N1CC2(CC(n3nc(-c4ccc(OCCC)cc4)c(C(N)=O)c3N)C2)C1

>  <prefix operator>
=

>  <number>
5.38

$$$$
>  <chemical string>
CC#CC(=O)N1CC2(CC(n3nc(-c4ccc(OCC(F)(F)F)cc4)c(C(N)=O)c3N)C2)C1

>  <prefix operator>
=

>  <number>
5.19

$$$$
>  <chemical string>
C=CC(=O)N1CC[C@]2(C1)C[C@H](n1cc(C(N)=O)c(-c3ccc(Oc4ccccc4)cc3)n1)C2

>  <prefix operator>
<

>  <number>
5.00

$$$$
>  <chemical string>
CC#CC(=O)N1CC[C@]2(C1)C[C@H](n1nc(-c3ccc(OC)cc3Cl)c(C(N)=O)c1N)C2

>  <prefix operator>
<

>  <number>
5.00

$$$$
>  <chemical string>
C=CC(=O)N1CCC[C@@H](n2nc(-c3ccc(Oc4ccccc4)cc3)c(C(N)=O)c2N)C1

>  <prefix operator>
=

>  <number>
8.18

$$$$
>  <chemical string>
C=CC(=O)N1CC[C@]2(C1)C[C@H](n1nc(-c3ccc(OCCC)c(F)c3)c(C(N)=O)c1N)C2

>  <prefix operator>
=

>  <number>
5.43

$$$$
>  <chemical string>
CC#CC(=O)N1CC[C@]2(C1)C[C@H](n1nc(-c3ccc(OCC(F)(F)F)cc3)c(C(N)=O)c1N)C2

>  <prefix operator>
=

>  <number>
6.38

$$$$
>  <chemical string>
C=CC(=O)N1CC[C@]2(C1)C[C@H](n1nc(-c3ccc(OCC(F)(F)F)cc3)c(C(N)=O)c1N)C2

>  <prefix operator>
=

>  <number>
5.28

$$$$
>  <chemical string>
C=CC(=O)N1CCC[C@@H](c2nc(-c3ccc(Oc4ccccc4)cc3)c(C(N)=O)[nH]2)C1

>  <prefix operator>
=

>  <number>
6.92

$$$$
>  <chemical string>
C=CC(=O)N1CC2(CC(n3nc(-c4ccc(OC5CC5)cc4)c(C(N)=O)c3N)C2)C1

>  <prefix operator>
=

>  <number>
5.24

$$$$
>  <chemical string>
C=CC(=O)N1CC[C@]2(C1)C[C@@H](n1nc(-c3ccc(Oc4ccccc4)cc3)c(C(N)=O)c1N)C2

>  <prefix operator>
=

>  <number>
6.10

$$$$
>  <chemical string>
CC#CC(=O)N1CC[C@]2(C1)C[C@@H](c1nc(-c3ccc(Oc4ccccc4)cc3)c(C(N)=O)s1)C2

>  <prefix operator>
=

>  <number>
5.74

$$$$
>  <chemical string>
CC#CC(=O)N1CC[C@]2(C1)C[C@H](n1nc(-c3ccc(OC(F)(F)F)cc3)c(C(N)=O)c1N)C2

>  <prefix operator>
=

>  <number>
5.92

$$$$
